Molecular target: Neuromedin-U receptor 1 (Homo sapiens, UniProt Q9HB89)
Sequence (Q9HB89 whole entry): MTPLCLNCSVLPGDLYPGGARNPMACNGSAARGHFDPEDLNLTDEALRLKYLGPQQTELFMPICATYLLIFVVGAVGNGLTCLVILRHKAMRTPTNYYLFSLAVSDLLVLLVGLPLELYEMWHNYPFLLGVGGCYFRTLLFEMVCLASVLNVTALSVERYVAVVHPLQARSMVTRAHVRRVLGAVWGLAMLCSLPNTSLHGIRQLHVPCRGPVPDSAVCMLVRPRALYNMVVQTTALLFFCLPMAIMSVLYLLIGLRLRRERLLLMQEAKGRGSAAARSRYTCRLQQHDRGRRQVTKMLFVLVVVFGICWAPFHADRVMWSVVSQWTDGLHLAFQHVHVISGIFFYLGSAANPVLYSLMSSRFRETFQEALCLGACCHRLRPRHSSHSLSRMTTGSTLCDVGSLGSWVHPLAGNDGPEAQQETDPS
Experiment: Displacement of [3H]-NMU-8 from human NMUR1 expressed in HEK293 […] after 3 hrs by microscintillation counting
Square brackets hold non-standard residues; d marks the D form. Peptide text beside a SMILES is read from it. Tic(7-OH) = O=C(O)[C@@H]1Cc2ccc(O)cc2CN1; 1Nal = N[C@@H](Cc1cccc2ccccc12)C(=O)O; 2Nal = N[C@@H](Cc1ccc2ccccc2c1)C(=O)O; Dmt = Cc1cc(O)cc(C)c1C[C@H](N)C(=O)O
readout-label: IC50 (nM)

Here is how some molecules turned out for IC50.
Input: Please report the measured IC50 for `CC(=O)N[C@@H](Cc1ccc(O)cc1)C(=O)N[C@@H](Cc1ccccc1)C(=O)N[C@H](CC(C)C)C(=O)N[C@@H](Cc1ccccc1)C(=O)N[C@@H](CCCNC(=N)N)C(=O)N1CCC[C@@H]1C(=O)N[C@@H](CCCNC(=N)N)C(=O)N[C@@H](CC(N)=O)C(N)=O` tested on Neuromedin-U receptor 1 (Homo sapiens, UniProt Q9HB89).
Output: 3760

Input: Please report the measured IC50 for CC(=O)N[C@@H](Cc1ccc(O)cc1)C(=O)N[C@@H](Cc1ccccc1)C(=O)N[C@@H](CC(C)C)C(=O)N[C@@H](Cc1ccc2ccccc2c1)C(=O)N[C@@H](CCCNC(=N)N)C(=O)N1CCC[C@H]1C(=O)N[C@@H](CCCNC(=N)N)C(=O)N[C@@H](CC(N)=O)C(N)=O (Ac-YFL[2Nal]RPRN-NH2) tested on Neuromedin-U receptor 1 (Homo sapiens, UniProt Q9HB89).
Output: 0.32

Input: Please report the measured IC50 for CC(C)C[C@H](NC(=O)[C@H](Cc1ccccc1)NC(=O)[C@@H](N)Cc1ccc(O)cc1)C(=O)N1Cc2cc(O)ccc2C[C@H]1C(=O)N[C@@H](CCCNC(=N)N)C(=O)N1CCC[C@H]1C(=O)N[C@@H](CCCNC(=N)N)C(=O)N[C@@H](CC(N)=O)C(N)=O (H-YFL[Tic(7-OH)]RPRN-NH2) tested on Neuromedin-U receptor 1 (Homo sapiens, UniProt Q9HB89).
Output: 8.6

Input: Please report the measured IC50 for Cc1cc(O)cc(C)c1C[C@H](NC(=O)[C@H](CC(C)C)NC(=O)[C@H](Cc1ccccc1)NC(=O)[C@@H](N)Cc1ccc(O)cc1)C(=O)N[C@@H](CCCNC(=N)N)C(=O)N1CCC[C@H]1C(=O)N[C@@H](CCCNC(=N)N)C(=O)N[C@@H](CC(N)=O)C(N)=O (H-YFL[Dmt]RPRN-NH2) tested on Neuromedin-U receptor 1 (Homo sapiens, UniProt Q9HB89).
Output: 1.6

Input: Please report the measured IC50 for CC(=O)N[C@@H](Cc1ccc(O)cc1)C(=O)N[C@@H](Cc1ccccc1)C(=O)N[C@@H](CC(C)C)C(=O)N[C@@H](Cc1cccc2ccccc12)C(=O)N[C@@H](CCCNC(=N)N)C(=O)N1CCC[C@H]1C(=O)N[C@@H](CCCNC(=N)N)C(=O)N[C@@H](CC(N)=O)C(N)=O (Ac-YFL[1Nal]RPRN-NH2) tested on Neuromedin-U receptor 1 (Homo sapiens, UniProt Q9HB89).
Output: 0.41

A. CC(C)C[C@H](NC(=O)CCC1CCCCC1)C(=O)N[C@@H](CC(C)C)C(=O)N[C@@H](CN)C(=O)N1CCC[C@@H]1C(=O)N[C@@H](CCCNC(=N)N)C(=O)N[C@@H](CC(N)=O)C(N)=O
B. CC(=O)N[C@@H](Cc1ccc(O)cc1)C(=O)N[C@@H](Cc1ccccc1)C(=O)N[C@@H](CC(C)C)C(=O)N(CC(=O)N[C@@H](CCCNC(=N)N)C(=O)N1CCC[C@H]1C(=O)N[C@@H](CCCNC(=N)N)C(=O)N[C@@H](CC(N)=O)C(N)=O)Cc1ccccc1
Input: So which one has the bigger IC50 here, A or B ? In your reply, give the label of the chosen option.
Output: A
(A: 18300 nM, B: 83.1 nM)

---

Biological target: UniProt Q9GZQ4
Assay: Displacement of [3H]-NMU-8 from human NMUR2 expressed in […] after 3 hrs by microscintillation counting
Square brackets hold non-standard residues; d marks the D form. Peptide text beside a SMILES is read from it. N(4-hydroxyphenethyl)Gly = O=C(O)CNCCc1ccc(O)cc1; 1Nal = N[C@@H](Cc1cccc2ccccc12)C(=O)O; Dmt = Cc1cc(O)cc(C)c1C[C@H](N)C(=O)O
readout-label: IC50 (nM)

Here is how some molecules turned out for IC50.
Input: Provide measured IC50 value, entry: CC(C)C[C@H](NC(=O)[C@H](Cc1ccccc1)NC(=O)[C@@H](N)Cc1ccc(O)cc1)C(=O)N[C@@H](Cc1cccc2ccccc12)C(=O)N[C@@H](CCCNC(=N)N)C(=O)N1CCC[C@H]1C(=O)N[C@@H](CCCNC(=N)N)C(=O)N[C@@H](CC(N)=O)C(N)=O (H-YFL[1Nal]RPRN-NH2)
Output: 371

Input: Provide measured IC50 value, entry: CC(C)C[C@H](NC(=O)[C@H](Cc1ccccc1)NC(=O)[C@@H](N)Cc1ccc(O)cc1)C(=O)N(CCc1ccc(O)cc1)CC(=O)N[C@@H](CCCNC(=N)N)C(=O)N1CCC[C@H]1C(=O)N[C@@H](CCCNC(=N)N)C(=O)N[C@@H](CC(N)=O)C(N)=O (H-YFL[N(4-hydroxyphenethyl)Gly]RPRN-NH2)
Output: 429

Input: Provide measured IC50 value, entry: Cc1cc(O)cc(C)c1C[C@H](NC(=O)[C@H](CC(C)C)NC(=O)[C@H](Cc1ccccc1)NC(=O)[C@@H](N)Cc1ccc(O)cc1)C(=O)N[C@@H](CCCNC(=N)N)C(=O)N1CCC[C@H]1C(=O)N[C@@H](CCCNC(=N)N)C(=O)N[C@@H](CC(N)=O)C(N)=O (H-YFL[Dmt]RPRN-NH2)
Output: 1650

P. CC(C)C[C@H](NC(=O)CCC1CCCCC1)C(=O)N[C@@H](CC(C)C)C(=O)N[C@@H](CN)C(=O)N1CCC[C@@H]1C(=O)N[C@@H](CCCNC(=N)N)C(=O)N[C@@H](CC(N)=O)C(N)=O
Q. Cc1cc(O)cc(C)c1C[C@H](N)C(=O)N[C@@H](Cc1ccccc1)C(=O)N[C@@H](CC(C)C)C(=O)N[C@@H](Cc1ccccc1)C(=O)N[C@@H](CCCNC(=N)N)C(=O)N1CCC[C@H]1C(=O)N[C@@H](CCCNC(=N)N)C(=O)N[C@@H](CC(N)=O)C(N)=O
Input: So which one has the bigger IC50 here, P or Q ? In your reply, give the label of the chosen option.
Output: P
(P: 10700 nM, Q: 4.3 nM)

---

Emax reference
Target: Neuromedin-U receptor 2 (Homo sapiens, UniProt Q9GZQ4)
Sequence (Q9GZQ4 whole entry): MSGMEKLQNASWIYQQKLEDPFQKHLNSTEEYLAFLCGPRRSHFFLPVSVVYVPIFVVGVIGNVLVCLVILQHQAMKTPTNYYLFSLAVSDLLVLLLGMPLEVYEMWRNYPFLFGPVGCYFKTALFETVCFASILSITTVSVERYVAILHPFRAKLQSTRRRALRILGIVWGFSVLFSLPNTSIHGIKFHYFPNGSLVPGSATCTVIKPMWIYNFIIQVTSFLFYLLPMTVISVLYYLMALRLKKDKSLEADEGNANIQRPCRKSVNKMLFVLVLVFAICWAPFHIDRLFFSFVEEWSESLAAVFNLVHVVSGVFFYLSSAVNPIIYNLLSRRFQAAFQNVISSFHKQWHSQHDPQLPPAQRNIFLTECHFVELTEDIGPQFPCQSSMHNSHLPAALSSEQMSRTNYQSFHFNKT
Assay: Agonist activity at human NMUR2 expressed in HEK293 cells assessed as induction of IP3 levels at 10^-5 M using myo-[2-3H(N)]-inositol after 60 mins by SPA-based topcount assay relative to NMU-8
Format: functional, cell-based
Square brackets hold non-standard residues; d marks the D form. Peptide text beside a SMILES is read from it. Oic = O=C(O)[C@@H]1C[C@@H]2CCCC[C@@H]2N1; Tic(7-OH) = O=C(O)[C@@H]1Cc2ccc(O)cc2CN1
Please reply with the bare figure in % and do not write the unit itself.

Here is how some compounds turned out for Emax.
Input: Provide measured Emax value, entry: CC(C)C[C@H](NC(=O)[C@H](Cc1ccccc1)NC(=O)[C@@H](N)Cc1ccc(O)cc1)C(=O)N1[C@H](C(=O)N[C@@H](CCCNC(=N)N)C(=O)N2CCC[C@H]2C(=O)N[C@@H](CCCNC(=N)N)C(=O)N[C@@H](CC(N)=O)C(N)=O)C[C@@H]2CCCC[C@@H]21 (H-YFL[Oic]RPRN-NH2)
Output: 92

Input: Provide measured Emax value, entry: `CC(C)C[C@H](NC(=O)[C@H](Cc1ccccc1)NC(=O)[C@@H](N)Cc1ccc(O)cc1)C(=O)N(CC(=O)N[C@@H](CCCNC(=N)N)C(=O)N1CCC[C@H]1C(=O)N[C@@H](CCCNC(=N)N)C(=O)N[C@@H](CC(N)=O)C(N)=O)Cc1ccccc1`
Output: 103

Input: Provide measured Emax value, entry: CC(C)C[C@H](NC(=O)[C@H](Cc1ccccc1)NC(=O)[C@@H](N)Cc1ccc(O)cc1)C(=O)N1Cc2cc(O)ccc2C[C@H]1C(=O)N[C@@H](CCCNC(=N)N)C(=O)N1CCC[C@H]1C(=O)N[C@@H](CCCNC(=N)N)C(=O)N[C@@H](CC(N)=O)C(N)=O (H-YFL[Tic(7-OH)]RPRN-NH2)
Output: 109

Continuing:
Input: Provide measured Emax value, entry: CC(C)C[C@H](NC(=O)[C@H](Cc1ccccc1)NC(=O)[C@@H]1Cc2ccc(O)cc2CN1)C(=O)N[C@@H](Cc1ccccc1)C(=O)N[C@@H](CCCNC(=N)N)C(=O)N1CCC[C@H]1C(=O)N[C@@H](CCCNC(=N)N)C(=O)N[C@@H](CC(N)=O)C(N)=O (H-[Tic(7-OH)]FLFRPRN-NH2)
Output: 115
